Target: human CDK4 and genetically truncated (1-264) cyclin D3 (Homo sapiens)
Sequence (P11802 whole entry, the tested form may be a part): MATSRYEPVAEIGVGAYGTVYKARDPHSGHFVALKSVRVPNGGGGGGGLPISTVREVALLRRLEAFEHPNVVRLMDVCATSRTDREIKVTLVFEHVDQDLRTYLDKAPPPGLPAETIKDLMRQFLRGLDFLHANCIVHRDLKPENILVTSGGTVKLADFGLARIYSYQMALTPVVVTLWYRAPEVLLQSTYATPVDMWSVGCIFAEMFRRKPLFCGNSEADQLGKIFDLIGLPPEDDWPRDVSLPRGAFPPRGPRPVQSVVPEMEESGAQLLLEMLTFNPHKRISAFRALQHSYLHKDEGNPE
Sequence (P30281 1-264 partner): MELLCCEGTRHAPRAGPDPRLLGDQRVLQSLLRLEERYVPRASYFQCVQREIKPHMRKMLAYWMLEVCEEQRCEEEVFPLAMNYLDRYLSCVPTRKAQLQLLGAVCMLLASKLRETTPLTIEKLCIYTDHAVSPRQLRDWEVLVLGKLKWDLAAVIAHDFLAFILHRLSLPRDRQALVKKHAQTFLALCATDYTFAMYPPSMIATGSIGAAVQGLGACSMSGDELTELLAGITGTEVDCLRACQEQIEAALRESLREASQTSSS
Test: Inhibition of CDK4/Cyclin D Retinoblastoma Kinase Activity
Conditions: apparent Ki, CDK4/truncated cyclin D3, Rb fragment substrate, 25 μM ATP
Where a name gives a salt, the structure may show the parent alone.
endpoint: pKi
Scale: negative log10 of molar concentration, which is what pKi denotes.

Observe how each entry below is paired with its result.
compound: CS(=O)(=O)N1CC[C@H](Nc2nc(N)c(C(=O)c3c(F)cccc3F)s2)C1
target-or-test-system: human CDK4 and genetically truncated (1-264) cyclin D3 (Homo sapiens)
experimental-result: 5.80
--
compound: Nc1nc(NC2CCN(S(=O)(=O)CCCSc3ccncc3)CC2)sc1C(=O)c1c(F)cccc1F
target-or-test-system: human CDK4 and genetically truncated (1-264) cyclin D3 (Homo sapiens)
experimental-result: 8.52
--
compound: Nc1nc(NC2CCN(C(=O)[C@@H]3CCC(=O)O3)CC2)sc1C(=O)c1c(F)cccc1F
target-or-test-system: human CDK4 and genetically truncated (1-264) cyclin D3 (Homo sapiens)
experimental-result: 8.17
--
compound: Nc1nc(NC2CCN(S(=O)(=O)c3ccc(-c4nnn[nH]4)cc3)CC2)sc1C(=O)c1c(F)cccc1F [Example J4, Trifluoroacetic Acid Salt]
target-or-test-system: human CDK4 and genetically truncated (1-264) cyclin D3 (Homo sapiens)
experimental-result: 8.77
--
compound: Nc1nc(NC2CCN(S(=O)(=O)c3ccc(-n4ccnc4)cc3)CC2)sc1C(=O)c1c(F)cccc1F
target-or-test-system: human CDK4 and genetically truncated (1-264) cyclin D3 (Homo sapiens)
experimental-result: 9.35

Request: Tell me the measured pKi of COc1ccc(OC)c(NC(=O)N2CCC(Nc3nc(N)c(C(=O)c4c(F)cccc4F)s3)CC2)c1 , please.
Result: 7.21

Request: So what does the record say about pKi for Nc1nc(NC2CCN(S(=O)(=O)c3ccc(N4CCOCC4)nc3)CC2)sc1C(=O)c1c(F)cccc1F [Example F20, Hydrochloride] ?
Result: 8.89

----------
Target: human CDK4 and genetically truncated (1-264) cyclin D3 (Homo sapiens)
Test: Inhibition of CDK4/Cyclin D Retinoblastoma Kinase Activity
Type: biochemical
Conditions: 0.03 μM compound; Table 3
This section presents compounds with their documented CDK4 % Inhibition at 0.03 μM values.
Number in %, nothing else.

Solved cases (3 shown):
compound: Nc1nc(NC2CCN(S(=O)(=O)c3ccc(Cl)c([N+](=O)[O-])c3)CC2)sc1C(=O)c1c(F)cccc1F
value-unit: %
CDK4 % Inhibition at 0.03 μM: 65
--
compound: CN(C)c1cccc2c(S(=O)(=O)N3CCC(Nc4nc(N)c(C(=O)c5c(F)cccc5F)s4)CC3)cccc12 [Example P2]
value-unit: %
CDK4 % Inhibition at 0.03 μM: 69
--
compound: Nc1nc(NC2CCN(S(=O)(=O)c3c(F)cccc3F)CC2)sc1C(=O)c1c(F)cccc1F
value-unit: %
CDK4 % Inhibition at 0.03 μM: 22

// next item, CDK4 % Inhibition at 0.03 μM requested
Request: Using the record for Nc1nc(NC2CCN(S(=O)(=O)c3ccc(I)cc3)CC2)sc1C(=O)c1c(F)cccc1F , report its CDK4 % Inhibition at 0.03 μM.
Result: 67

----------
Molecular target: CDK2/Cyclin A (Homo sapiens, UniProt P24941)
Test: Inhibition of CDK2/Cyclin A Retinoblastoma Kinase Activity
Format: biochemical
Settings: 0.03 μM compound; Table 3
endpoint: CDK2 % Inhibition at 0.03 μM (%)
Write the value in % as a bare number.

smiles: CSc1nccc(-c2ccc(S(=O)(=O)N3CCC(Nc4nc(N)c(C(=O)c5c(F)cccc5F)s4)CC3)s2)n1
target-or-test-system: CDK2/Cyclin A (Homo sapiens, UniProt P24941)
experimental-result: 61
--
smiles: Nc1nc(NC2CCN(S(=O)(=O)c3ccc(O)c(C(=O)O)c3)CC2)sc1C(=O)c1c(F)cccc1F
target-or-test-system: CDK2/Cyclin A (Homo sapiens, UniProt P24941)
experimental-result: −16

Request: Look up CDK2 % Inhibition at 0.03 μM for this compound: Nc1nc(NC2CCN(S(=O)(=O)c3ccc(C(F)(F)F)cc3)CC2)sc1C(=O)c1c(F)cccc1F
Result: 56

Request: Consider the compound shown here: Nc1nc(NC2CCN(S(=O)(=O)c3ccc(C(=O)O)cc3)CC2)sc1C(=O)c1c(F)cccc1F What is its recorded CDK2 % Inhibition at 0.03 μM?
Result: 23

Request: Entry [N-]=[N+]=C1C=C(S(=O)(=O)N2CCC(Nc3nc(N)c(C(=O)c4c(F)cccc4F)s3)CC2)c2ccccc2C1=O : reported CDK2 % Inhibition at 0.03 μM = ?
Result: −11

Request: # query: CDK2 % Inhibition at 0.03 μM of entry Nc1nc(NC2CCN(S(=O)(=O)c3c(F)cccc3F)CC2)sc1C(=O)c1c(F)cccc1F
Result: −8

Request: Which CDK2 % Inhibition at 0.03 μM reading was recorded for the compound N#Cc1ccc(S(=O)(=O)N2CCC(Nc3nc(N)c(C(=O)c4c(F)cccc4F)s3)CC2)cc1 ?
Result: 81

----------
Test system: HCT-116 cell line
Assay: Inhibition of cell growth, tetrazolium salt (MTT) assay
Type: cell-based
Settings: Homo sapiens, HCT-116, 120 h, read-out: HCT-116 IC50, first HCT-116 column (c4); MTT, three to five days
endpoint: IC50 (nM)
Please give a number only; it is taken to be in nM.

smiles: Nc1nc(NC2CCN(C(=O)Oc3ccc(Cl)cc3)CC2)sc1C(=O)c1c(F)cccc1F
value-unit: nM
IC50: 330

Please turn your attention to the following entry.
Request: Can you look up the measured IC50 of Nc1nc(NC2CCN(C(=O)Oc3ccc([N+](=O)[O-])cc3)CC2)sc1C(=O)c1c(F)cccc1F for me?
Result: 130

----------
Tested on: HCT-116 cell line
Experiment: Inhibition of cell growth, tetrazolium salt (MTT) assay
Format: cell-based
Conditions: Homo sapiens, HCT-116, 120 h, first HCT-116 column (c4); MTT, three to five days; read-out: HCT-116 IC50
Counter-ions that a name gives are not always drawn.
Entries and their pIC50
Hey, just a heads up that pIC50 is the negative log base 10 of the concentration in molar.

compound: Nc1nc(NC2CCN(S(=O)(=O)CCN3CC=CC3)CC2)sc1C(=O)c1c(F)cccc1F
experimental-result: 6.19

Request: Record request: pIC50 value, item C[C@@H]1CN(CCc2ccc(S(=O)(=O)N3CCC(Nc4nc(N)c(C(=O)c5c(F)cccc5F)s4)CC3)cn2)C[C@H](C)N1 [Example N8, Hydrochloride Salt]
Result: 5.89

Request: Quick one: pIC50 of CC(C)NCCOc1ccc(S(=O)(=O)N2CCC(Nc3nc(N)c(C(=O)c4c(F)cccc4F)s3)CC2)cn1 [Example H19, Hydrochloride Salt] ?
Result: 6.74

Request: Look up pIC50 for this compound: Nc1nc(NC2CCN(S(=O)(=O)CCCN3CC=CCC3)CC2)sc1C(=O)c1c(F)cccc1F
Result: 6.89

Request: Tell me the measured pIC50 of CC1(C)CN(CCCS(=O)(=O)N2CCC(Nc3nc(N)c(C(=O)c4c(F)cccc4F)s3)CC2)CCN1 , please.
Result: 5.48

Request: GET /values?readout=pIC50&item= CC1CC(NCCS(=O)(=O)N2CCC(Nc3nc(N)c(C(=O)c4c(F)cccc4F)s3)CC2)CC(C)(C)C1 (stereo not shown)
Result: 7.00

Request: For Nc1nc(NC2CCN(S(=O)(=O)CCCN3CCc4ccccc4C3)CC2)sc1C(=O)c1c(F)cccc1F , what is its reported pIC50?
Result: 6.85

----------
Attribute: inhibition at 0.05 µM
Target: CDK2/Cyclin A (Homo sapiens)
Test: Inhibition of CDK2/Cyclin A Retinoblastoma Kinase Activity
Assay type: biochemical
Conditions: read-out: % inhibition of CDK2 (@ 0.05 μM), compound at 0.05 μM
Protocol: Cyclin-dependent kinase activity was measured by quantifying the enzyme-catalyzed, time-dependent incorporation of radioactive phosphate from [^32P]ATP or [^33P]ATP into a protein substrate. […] The phosphorylated substrate was then captured on a nitrocellulose or phosphocellulose membrane using a 96-well filtration manifold, and unincorporated radioactivity was removed by repeated washing with 0.85% phosphoric acid. Radioactivity was quantified by exposing the dried membranes to a phosphorimager. […]
Report as: number unit

Would you please look over these solved cases?
compound: COCCN(C)CCCS(=O)(=O)N1CCC(Nc2nc(N)c(C(=O)c3c(F)cccc3F)s2)CC1
endpoint: inhibition at 0.05 µM
experimental-result: 78%
//
compound: Cc1cccc(CNCCCS(=O)(=O)N2CCC(Nc3nc(N)c(C(=O)c4c(F)cccc4F)s3)CC2)c1
endpoint: inhibition at 0.05 µM
experimental-result: 93%
//
compound: CCN1CCN(CCCS(=O)(=O)N2CCC(Nc3nc(N)c(C(=O)c4c(F)cccc4F)s3)CC2)CC1
endpoint: inhibition at 0.05 µM
experimental-result: 72%

Request: # get_value(readout='inhibition at 0.05 µM', item= CC1CN(CCCS(=O)(=O)N2CCC(Nc3nc(N)c(C(=O)c4c(F)cccc4F)s3)CC2)CC(C)O1 (stereo not drawn) )
Result: 83%
